# experimental setup: Liquid; pulse heating method
endpoint name: Critical pressure (kPa)

Example entries and their recorded answers appear below.
{"molecule": "COC(=O)CCCC(=O)OC [dimethyl pentanedioate]", "numeric readout": 2770}
{"molecule": "COC(=O)CCCCCCCCC(=O)OC [dimethyl sebacate]", "numeric readout": 2080}
{"molecule": "COC(=O)CCCCCCC(=O)OC [dimethyl octanedioate]", "numeric readout": 2300}

1. COC(=O)CC(=O)OC [dimethyl 1,3-propanedioate]
2. COC(=O)CCCCCC(=O)OC [dimethyl 1,7-heptanedioate]
// returns 1 or 2 , whichever has the lower Critical pressure Mark your selection by writing its label.
2

P. COC(=O)CCCCC(=O)OC [dimethyl 1,6-hexanedioate]
Q. COC(=O)C(=O)OC [dimethyl ethanedioate]
Would you let me know which has the greater Critical pressure value, P or Q ? Mark your selection by writing its label.
Q
(Q: 4060 kPa, P: 2500 kPa)
